Target: CYP2C19 (Homo sapiens)
Construct: was investigated in HLMs; tissue iPhase Pharmaceutical Services (Beijing, China) Lot # 7MMC011; host or cells: pooled human liver microsomes
Sequence (P33261 whole entry): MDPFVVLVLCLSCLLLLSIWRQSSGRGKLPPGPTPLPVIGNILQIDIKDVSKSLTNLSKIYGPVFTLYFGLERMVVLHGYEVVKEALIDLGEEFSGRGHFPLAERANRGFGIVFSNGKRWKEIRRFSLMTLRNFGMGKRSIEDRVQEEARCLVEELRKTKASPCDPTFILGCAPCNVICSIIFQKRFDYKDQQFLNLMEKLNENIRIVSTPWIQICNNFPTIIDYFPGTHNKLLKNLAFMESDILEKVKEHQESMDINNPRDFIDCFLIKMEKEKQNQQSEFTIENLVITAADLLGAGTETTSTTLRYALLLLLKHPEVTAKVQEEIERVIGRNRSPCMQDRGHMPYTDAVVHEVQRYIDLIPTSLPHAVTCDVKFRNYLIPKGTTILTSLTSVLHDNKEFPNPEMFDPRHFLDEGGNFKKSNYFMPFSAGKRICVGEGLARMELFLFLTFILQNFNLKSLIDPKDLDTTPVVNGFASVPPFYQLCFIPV
Test: Inhibition of CYP activities by GA in HLMs (mephenytoin)
Assay type: biochemical
Settings: human, human liver microsomes, probe mephenytoin (25 µM); CYP2C19-30min; GA 1.0000; vs control; read-out: Relative activity (%)

querySmiles	studySystem	activity at 30 min, 1 µM
CC1(C)[C@@H](O)CC[C@]2(C)[C@H]3C(=O)C=C4[C@@H]5C[C@@](C)(C(=O)O)CC[C@]5(C)CC[C@@]4(C)[C@]3(C)CC[C@@H]12	CYP2C19 (Homo sapiens)	105%
